This collection of values is drawn from PubChem BioAssay (NCI).

# System: CAKI-1 renal
# assay.comment: NCI-60 one-dose screen, 48 h
# cond: 10 µM unless noted
The panel holds about 83,000 compounds, 20% with a hit somewhere; the sample as a whole holds those more often. Active and inactive are the calls of the source. How the source made its calls: active means growth percent below 10; inactive means the rest.
Possible outcomes: class 1 = active, class 0 = inactive

compound: Cc1nc2sc(C(=O)Nc3cccc(Cl)c3)c(N)c2cc1C(O)c1ccccc1 (stereo unspecified)
label.value: class 0
//
compound: CO[C@H](C(=O)[C@@H](O)[C@@H](C)O)[C@@H]1Cc2cc3cc(O[C@H]4C[C@@H](O[C@H]5C[C@@H](O)[C@H](O)C(C)O5)[C@H](O)C(C)O4)c(C)c(O)c3c(O)c2C(=O)[C@H]1O[C@H]1C[C@@H](O[C@H]2C[C@@H](O[C@H]3C[C@@H](OC)[C@H](O)C(C)O3)[C@@H](O)C(C)O2)C(O)(O)C(C)O1 (stereo partly specified)
label.value: class 1
//
compound: Cc1cccc(N2CCN(C(=S)c3ccc4c(c3)OCO4)CC2)c1
label.value: class 0
//
compound: CC[C@H](CC[C@@H](C)[C@H]1CC[C@H]2[C@@H]3CC[C@@H]4CC(=O)/C(=C\c5ccncc5)C[C@]4(C)[C@H]3CC[C@]12C)C(C)C
label.value: class 0
//
compound: CNCc1cccc2c1OCCOCCN(C)C(=O)CN(C)S(=O)(=O)c1ccc(cc1)-c1cnc(N)c(n1)C(=O)N2
label.value: class 0
//
compound: CCN(CC)S(=O)(=O)c1ccc(S(=O)(=O)N2CCC[C@@H](C(=O)N3CCN(C(=O)OC(C)(C)C)CC3)C2)cc1
label.value: class 0
//
compound: O=C(CCCCCCN1CC(=O)N2[C@@H](c3ccc(Cl)cc3)c3[nH]c4ccccc4c3C[C@H]2C1=O)NO
label.value: class 0
//
compound: CCNCc1ccc(O)c2ncccc12
label.value: class 0
//
compound: Cc1ccc(-c2nc(C#N)c(S(=O)(=O)NCCO)o2)cc1
label.value: class 0
//
compound: COc1ccc(NC(=O)c2cccc(C3CCc4c(cc(OC)c(OC)c4OC)O3)c2)cc1 (stereo unspecified)
label.value: class 0
//
compound: COc1cc2ncnc(Nc3ccc(F)c(Cl)c3)c2cc1OCC(=O)N1CCN(c2ccc(F)cc2)CC1
label.value: class 0
//
compound: CCCCn1sc(=O)n(Cc2ccc(CNC(=O)OCc3ccc4c(Br)cc(Br)c(O)c4n3)cc2)c1=O
label.value: class 0
//
compound: O=C(NCc1ccccc1O)c1cccc2ccccc12
label.value: class 0
//
compound: COc1ccc(C/C(C)=C(\c2ccc(O)cc2)c2ccc(OCCN3CCCC3)cc2)cc1
label.value: class 0
//
compound: Cc1ccc(Nc2nc(-c3ccc(F)cc3)c(C#N)c(=O)n2C)cc1
label.value: class 0
//
compound: C[C@@H](CO)[C@@H]1CC[C@]2(C(=O)N3CCN(C)CC3)CC[C@]3(C)[C@H](CC[C@@H]4[C@@]5(C)CC[C@H](O)C(C)(C)[C@@H]5CC[C@]43C)[C@@H]12
label.value: class 0
//
compound: N/C(=N\c1nc2ccccc2s1)NC(=NC1CCCCC1)NC1CCCCC1
label.value: class 0
//
compound: O=C(CSc1nc2ccc([N+](=O)[O-])cc2[nH]1)Nc1cccc([N+](=O)[O-])c1
label.value: class 0
//
compound: COc1ccccc1NC(=O)c1ccc(/C=C/C(=O)c2nccn2C)cc1
label.value: class 1
//
compound: CCCCCSB(SCCCCC)c1ccccc1
label.value: class 0
//
compound: COc1ccc2cc(-c3ccc(-c4ccc(C(=N)N)s4)s3)ccc2c1
label.value: class 0
//
compound: CN1CCN(CCCOC(=O)c2c3c(n4ccccc24)C(=O)c2ncccc2C3=O)CC1
label.value: class 1
//
compound: c1ccc(CNc2ccc3nc(CCC4CCCCC4)[nH]c3c2)cc1
label.value: class 0
//
compound: CC(C)C[C@@H](C(=O)N[C@H](C(=O)OC1CCCC1)c1ccccc1)[C@H](O)C(=O)NO
label.value: class 0
//
compound: O=C(CCCCNC(=O)c1cc(=O)c(O)co1)Nc1ccccc1
label.value: class 0
//
compound: CCOC(=O)C(=Cc1cccc(C#N)c1)C(=O)OCC
label.value: class 0
//
compound: Cc1c(N2CN3C[C@H](C)N4CN(c5c(C)n(C)n(-c6ccccc6)c5=O)CN5C[C@@H](C)N(C2)C3C54)c(=O)n(-c2ccccc2)n1C (stereo partly specified)
label.value: class 0
//
compound: CCCCN1C(=O)/C(=c2\sc3n(c2=O)NC2C(N=3)N(CC)C(=O)N2CC)c2ccccc21 (stereo unspecified)
label.value: class 0
//
compound: CC(C)CSc1oc(-c2ccccc2)nc1S(=O)(=O)c1ccccc1
label.value: class 0
//
compound: CCNC(=O)Oc1ccc(/C(=C(/C)Cc2ccc(OC)cc2)c2ccc(OCCN3CCCCCC3)cc2)cc1
label.value: class 0
//
compound: c1ccc2cc(Cn3c[n+](Cc4ccc5ccccc5c4)c4ccccc43)ccc2c1
label.value: class 0
//
compound: O=c1nc(Nc2nc3ccccc3s2)[nH]c(=O)c2ccccc12
label.value: class 0
//
compound: COc1ccc(Cl)cc1Nc1nc(C(F)(F)F)ccc1C(=O)N/N=C/c1ccccc1Cl
label.value: class 0
//
compound: CCCCc1oc2ccccc2c1C(=O)c1ccc(O)cc1
label.value: class 0
//
compound: COC(=O)Cc1nc(C#N)c(N(C)C)o1
label.value: class 0
//
compound: CCn1cc(C(=O)N/N=C/c2ccc(Br)cc2)c(=O)c2cc(F)c(N3CCNC(C)C3)c(F)c21 (stereo unspecified)
label.value: class 0
